# TEST TARGET: T1, Human IL-13 (human, UniProt P35225 35-146)
# T1 construct: also called human interleukin 13 (Peprotech); the antigen
# T1 sequence (P35225 35-146 limits assumed): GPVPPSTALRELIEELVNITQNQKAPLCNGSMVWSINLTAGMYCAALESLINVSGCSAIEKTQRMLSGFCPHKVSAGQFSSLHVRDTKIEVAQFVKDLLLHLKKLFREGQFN
# ASSAY SUMMARY: biochemical receptor-ligand inhibition assay, purified scFv titrated (second panel); the IL-13 receptor used is not named in Example 1
READOUT KIND: IC50 (nM)
The figure you give is taken to be in nM; do not add the unit.

Solved cases below.
[
  {
    "BINDER": "13NG0082 (scFv, V domains shown, purified scFv from the mini-recombination library; member of group m20; also called ZZ0SEF-E03; copies: 1 + 1) VH: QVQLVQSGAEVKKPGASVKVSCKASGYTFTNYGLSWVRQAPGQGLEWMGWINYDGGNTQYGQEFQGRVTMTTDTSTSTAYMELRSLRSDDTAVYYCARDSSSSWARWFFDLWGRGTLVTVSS VL: SYVLTQPPSVSVAPGKTARIPCGGNMVGARLVHWYQQKPGQAPVLIVFDDEDRPSGIPERFSGSNSGNTATLTISRVEAGDEADYYCQVWDTGSRPVVFGGGTKLTVL",
    "READING UNIT": "nM",
    "IC50": 11
  },
  {
    "BINDER": "13NG0084 (scFv, V domains shown, purified scFv from the mini-recombination library; member of group m20; also called ZZ0SED-F07; copies: 1 + 1) VH: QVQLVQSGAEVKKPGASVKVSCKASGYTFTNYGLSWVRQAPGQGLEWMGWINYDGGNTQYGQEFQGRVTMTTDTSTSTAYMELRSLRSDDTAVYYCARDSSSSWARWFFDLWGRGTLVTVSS VL: SYVLTQPPSVSVAPGKTARIPCGGNLIAARLVHWYQQKPGQAPVLIVFDDEDRPSGIPERFSGSNSGNTATLTISRVEAGDEADYYCQVWDTGSSPVVFGGGTKLTVL",
    "READING UNIT": "nM",
    "IC50": 10.7
  },
  {
    "BINDER": "13NG0083 (antibody, V domains shown, also called unmodified 13NG0083; WT) VH: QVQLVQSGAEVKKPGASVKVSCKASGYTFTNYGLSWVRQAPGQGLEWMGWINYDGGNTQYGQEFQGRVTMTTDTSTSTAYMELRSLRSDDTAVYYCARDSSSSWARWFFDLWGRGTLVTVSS VL: SYVLTQPPSVSVAPGKTARIPCGGNMVGARLVHWYQQKPGQAPVLIVFDDEDRPSGIPERFSGSNSGNTATLTISRVEAGDEADYYCQVWDTGSSPVVFGGGTKLTVL",
    "READING UNIT": "nM",
    "IC50": 8.88
  }
]

Next:
Just so you know, measured IC50 for 13NG0085 (scFv, V domains shown, purified scFv from the mini-recombination library; member of group m20; also called ZZ0SEF-G10; copies: 1 + 1) VH: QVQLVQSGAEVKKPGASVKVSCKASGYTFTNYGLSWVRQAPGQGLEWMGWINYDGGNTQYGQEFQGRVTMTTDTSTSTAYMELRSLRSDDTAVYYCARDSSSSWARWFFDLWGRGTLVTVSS VL: SYVLTQPPSVSVAPGKTARIPCGGNMVGARLVHWYQQKPGQAPVLIIMDDIDRPSGIPERFSGSNSGNTATLTISRVEAGDEADYYCQVWDTGSRPVVFGGGTKLTVL came out at 10.8
